- test target: human HSL (Homo sapiens, UniProt Q05469)
- Sequence (Q05469 whole entry): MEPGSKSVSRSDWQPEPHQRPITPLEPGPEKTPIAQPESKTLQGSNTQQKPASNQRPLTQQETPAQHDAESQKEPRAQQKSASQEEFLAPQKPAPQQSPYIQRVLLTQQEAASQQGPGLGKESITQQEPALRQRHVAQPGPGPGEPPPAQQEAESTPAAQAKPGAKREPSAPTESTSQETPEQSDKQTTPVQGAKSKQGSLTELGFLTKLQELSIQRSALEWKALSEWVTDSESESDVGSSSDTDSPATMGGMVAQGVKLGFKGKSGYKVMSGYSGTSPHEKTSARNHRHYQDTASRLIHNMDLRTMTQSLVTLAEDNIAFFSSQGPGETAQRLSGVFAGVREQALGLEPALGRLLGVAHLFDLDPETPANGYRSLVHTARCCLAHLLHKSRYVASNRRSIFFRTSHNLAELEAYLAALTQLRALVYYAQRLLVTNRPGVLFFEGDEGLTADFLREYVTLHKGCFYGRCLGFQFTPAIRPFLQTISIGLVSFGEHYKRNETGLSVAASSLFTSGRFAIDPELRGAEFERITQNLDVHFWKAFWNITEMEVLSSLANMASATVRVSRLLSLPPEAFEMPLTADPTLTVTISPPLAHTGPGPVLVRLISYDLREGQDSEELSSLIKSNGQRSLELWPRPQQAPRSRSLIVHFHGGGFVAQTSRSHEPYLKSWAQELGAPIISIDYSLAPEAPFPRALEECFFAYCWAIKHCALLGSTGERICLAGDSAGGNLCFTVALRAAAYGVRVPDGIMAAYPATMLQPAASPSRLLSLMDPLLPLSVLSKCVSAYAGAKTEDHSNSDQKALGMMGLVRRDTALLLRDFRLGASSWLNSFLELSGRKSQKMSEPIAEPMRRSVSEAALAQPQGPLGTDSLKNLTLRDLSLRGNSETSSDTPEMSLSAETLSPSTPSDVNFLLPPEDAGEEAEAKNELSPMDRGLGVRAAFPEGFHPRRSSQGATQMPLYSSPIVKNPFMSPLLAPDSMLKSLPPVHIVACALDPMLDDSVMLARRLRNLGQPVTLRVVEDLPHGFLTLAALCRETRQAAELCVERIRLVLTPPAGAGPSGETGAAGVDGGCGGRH
pIC50: −log10 of the molar value. Where a name gives a salt, the structure may show the parent alone.

{"molecule": "CC(C)c1ccc(NC(=O)C2(N)CCN(Cc3cccc(F)c3)CC2)cc1 [Example 111, hydrochloride]", "pIC50": 6.62}
{"molecule": "CC(C)c1ccc(NC(=O)C2(N)CCN(Cc3ccc(F)cc3)CC2)cc1 [Example 121, hydrochloride]", "pIC50": 6.80}
{"molecule": "CC(C)(C)c1ccc(NC(=O)C2(O)CCN(C(=O)c3ccc(F)cc3)CC2)cc1", "pIC50": 6.68}

// data source = patent US8399676B2
